Assay: Apaf-1 inhibitors, single-dose retest, confirmation, biochemical, fluorescence, DEVD-Rh110, 20 µM (AID 504614);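 further: plate controls were DMSO wells for no effect and DEVD-CHO caspase inhibitor control wells for full effect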
Conditions: reconstituted apoptosome, caspase-3 DEVD-Rh110 fluorescence; at 20 µM; stronger effect = higher value
The list shows a part of the results.
Quick list: inhibition per entry.

{"columns": ["compound_structure", "inhibition / %"],
 "data": [
  ["CCN1C(=NCc2ccc(OC)cc2)N[C@@H](CCc2ccccc2)[C@H](C(=O)NCc2ccc(OC)cc2)[C@H]1C", 4.13],
  ["Cc1[nH]n(-c2ccccc2)c(=O)c1/C=N/NC(=O)c1ccoc1C", 62],
  ["Oc1ccc(N=Cc2sc3ccccc3c2Cl)cc1", 14.4],
  ["c1ccc(CSc2nnc(-c3ccco3)c(-c3ccco3)n2)cc1", 29.4],
  ["CN(C)S(=O)(=O)c1ccc2oc(SCC(=O)Nc3ccccc3F)nc2c1", 77.8],
  ["CCCCCCCCCCOC(=O)Cn1c(COc2cccc(OC)c2)[n+](C)c2ccccc21", 74.8],
  ["O=C(N/N=C\\c1cccnc1)c1cc(-c2ccccc2)nc2c(Cl)cccc12", 11.8],
  ["Clc1ccc(C2=CSC3=Nc4cccc5cccc(c45)N23)cc1", 62.8],
  ["Cc1oc2c(c1C(=O)N1CCOCC1)C(=O)c1ccccc1C2=O", 52.9],
  ["Cc1[nH][nH]c(=O)c1C(c1ccc(-c2ccc(Cl)cc2)o1)c1c(C)[nH][nH]c1=O", 18],
  ["C[C@@H](CN1CCC[C@H]1CN1C(N)=NC[C@@H]1Cc1ccccc1)N1C[C@@H](Cc2ccccc2)N(CCCC2CCCC2)C1=N", 11.8],
  ["COCCNC(=O)Nc1ccc2nc(-c3ccco3)c(-c3ccco3)nc2c1", 40.9],
  ["CCCCCCc1cc2cc(-c3nnc(-c4ccccc4)o3)c(=O)oc2cc1O", 76],
  ["CC(C)n1cnc2c(NCc3ccccc3)cc(OCC3CCN(C)CC3)cc21", 78.1],
  ["CC(C)CC[n+]1ccn(C2=C([O-])c3ccccc3C(=O)/C2=N\\S(=O)(=O)c2ccccc2)c1", 62.6]
]}

* * *

Quick list: inhibition per entry.
Assay: inhibitors of PAF-induced NFkB signaling in CF airway cells, dose response, cell-based, uHTS hits, panel, cytotoxicity readout (AID 624344)
Details: CF bronchial epithelial cells, PAF-induced NFkB reporter inhibition, with PAF, run 1; at 79 µM (top of the series) unless noted

{"columns": ["compound", "inhibition, %"],
 "data": [
  ["c1csc(CNc2ncnc3ccc(-c4ccoc4)cc23)c1", 105],
  ["Cc1[nH]nc2nc(SCC(=O)NCCC3=CCCCC3)n(-c3ccc(Br)cc3)c(=N)c12", 100],
  ["CC(=O)Oc1c(Cl)cc(N(C(C)=O)S(=O)(=O)c2ccccc2)c2ccccc12", 89.7],
  ["Cc1cnc(NC(=O)CCCc2nc3ccccc3s2)s1", 101],
  ["Cc1ccnc(NC(=O)CSc2cc(=O)n(C)c3ccccc23)c1", 103],
  ["Cc1ccc(NC(=O)Nc2cccc([N+](=O)[O-])c2)cc1F", 102],
  ["CCc1cc(-c2[nH]ncc2-c2ccc(OC)cc2)c(O)cc1O", 115],
  ["CC1(Cc2ccc(Cl)cc2)C(=O)Nc2ccc(-c3cccnc3)cc21 (configuration not stated)", 107],
  ["C=CCn1cnc2c(c1=O)c1nc3ccccc3nc1n2/N=C/c1cc(OC)c(OC)c(OC)c1", 109],
  ["CS(=O)(=O)c1ncc(Cl)c(C(=O)Nc2ccc(OC(F)F)cc2)n1", 91.4],
  ["CCOC(=O)/C=c1/s/c(=C\\c2c(OC)ccc3ccccc23)c(=O)n1CC(=O)NCC1CCCO1 (configuration not stated)", -195],
  ["COc1cccc(-c2cnc3c(NC=O)cc(-c4ccc(OC)cc4OC)cn23)c1", 98.2],
  ["Cc1ccc(-c2n[nH]c(=S)n2/N=C/c2ccncc2)cc1", 111],
  ["c1cncc(CNc2ncnc3ccc(-c4ccoc4)cc23)c1", 113],
  ["CCN1CCN(Cc2ccc(NC(=O)c3ccc(C)c(NC(=O)C(=O)c4c[nH]c5ccccc45)c3)cc2C(F)(F)F)CC1", 103],
  ["Cc1ccnc(Nc2nc(-c3sc(C)nc3C)cs2)c1", 107],
  ["Cc1ccc(NS(=O)(=O)c2ccc(-c3cnc(C4CC4)o3)cc2)c(C)c1", 104],
  ["Cc1ccccc1S(=O)(=O)Cc1ccc(C(=O)N2CCN(c3cccc(C)c3C)CC2)o1", 103],
  ["Nc1ncnc(N2CCc3ccccc32)c1[N+](=O)[O-]", 115],
  ["N#Cc1ccsc1NC(=O)c1ccc(Cl)c([N+](=O)[O-])c1", 74],
  ["Cc1ccc(NC(=O)CSc2ncnc3ccccc23)cc1S(=O)(=O)N1CCOCC1", 110],
  ["Cc1ccc(NC(=O)c2ccccc2NS(=O)(=O)c2ccc(Cl)s2)cc1S(=O)(=O)N1CCOCC1", 111],
  ["O=c1[nH]c(C2CCN(S(=O)(=O)c3ccc4c(c3)OCCO4)CC2)nc2c1nnn2Cc1c(F)cccc1Cl", 93],
  ["Clc1ccc(-c2csc3ncnc(N4CCc5ccccc5C4)c23)cc1", 103],
  ["CC(C)CN=C(NS(=O)(=O)c1ccccc1)C(Cl)(Cl)Cl", 102],
  ["CN(C)c1ccnc2sc3c(=O)n(Cc4ccccc4)cnc3c12", 106],
  ["CCC1(O)C(=O)OCc2c1cc1n(c2=O)Cc2cc3cc(O)ccc3nc2-1 (configuration not stated)", 106],
  ["O=C(CCS(=O)(=O)c1ccccc1)N(CCCN1CCOCC1)c1nc2c(F)cccc2s1", 97.5],
  ["COc1ccc(-c2cc(NC=O)c3ncc(-c4ccc(OC)c(OC)c4)n3c2)c(OC)c1", 95.1],
  ["CCc1cc(SC#N)cc(C)c1NC(=O)CCl", 107],
  ["O=C(COc1ccc(Cl)cc1)Nc1ncc([N+](=O)[O-])s1", 115],
  ["CCc1ccccc1NC(=O)CN(C)C(=O)Cn1ncc(Cl)c(Cl)c1=O", 102],
  ["COc1ccc(-c2cncnc2-c2ccc(OC)cc2O)cc1", 101],
  ["O=C(Nc1cccc(S(=O)(=O)N2CCCCC2)c1)Nc1ccc(Cl)cc1Cl", 103],
  ["Cc1ccc(S(=O)(=O)Nc2nc3ccccc3nc2Nc2cccc(S(=O)(=O)N3CCCC3)c2)cc1", 94.9],
  ["Cc1nc2c(O)c3c(c(O)c2nc1C)C1C=CC3CC1", 114],
  ["c1csc(Cc2nn3c(-c4ccncc4)nnc3s2)c1", 115],
  ["COc1ccc2c(=O)cc(-c3ccncc3)oc2c1OC", 116],
  ["COc1cc(C2c3cc4c(cc3C(O)C3COC(=O)C23)OCO4)cc(OC)c1OC (configuration not stated)", -0.395],
  ["O=C(Nc1ccc(Oc2ccc(NC(=O)Nc3ccc([N+](=O)[O-])cc3)cc2)cc1)Nc1ccc([N+](=O)[O-])cc1", 101],
  ["COc1ccc(NC(=O)Nc2nnc(-c3ccncc3)s2)cc1", 67.9],
  ["CNC(=O)c1ccc(NC(=O)C2CCN(c3ncnc4sc(C)c(C)c34)CC2)cc1", 85.3]
]}

* * *

Target: Tumor necrosis factor receptor superfamily member 10B (Homo sapiens)
Test: caspase-8 TRAIL sensitization, hit retest, confirmation, cell-based, NB7+caspase-8, with/without TRAIL, luminescence panel (AID 651596)
Settings: NB7 neuroblastoma + caspase-8, TRAIL sensitization, luminescence viability, with TRAIL, mean of runs, at 10 µM, stronger effect = higher value

{"columns": ["compound", "activity"],
 "data": [
  ["O=C(Nc1ccc(NC(=O)C2CC2)cn1)c1ccccc1", "51.1%"],
  ["CCCCCc1cc(=O)oc2c(C(CCN3CCCC3)c3cc(OC)c(OC)c(OC)c3)c(OC)cc(OC)c12 (stereo unspecified)", "28.4%"],
  ["CCOC(=O)c1cnc2c(-c3ccccc3)cnn2c1C", "50%"],
  ["Brc1ccc(-c2cn3ccccc3n2)s1", "52.6%"],
  ["COc1cccc(C=Cc2nccc3ccccc23)c1OC", "69.2%"],
  ["CC(C)(C)Nc1ncnc2c1cnn2-c1ccccc1", "73.8%"],
  ["Cc1cc(C)cc(N2C(N)=NC(N)=NC2c2ccccc2F)c1 (stereo unspecified)", "51.1%"],
  ["Cc1cccc(N2CCN(C(=S)Nc3ccc4nc(N5CCN(C)CC5)cc(C)c4c3)CC2C)c1 (stereo unspecified)", "75.8%"],
  ["C/C(=N\\NC(=O)c1ccccc1O)c1cccs1", "68.1%"],
  ["CCN1CCN(Cc2ccc(NC(=O)c3cc(NC(=O)c4cnnc5ccccc45)cc(OC)c3)cc2C(F)(F)F)CC1", "55.2%"],
  ["COc1ccc(/C=N/Nc2nnc(Cc3ccccc3)c(=O)[nH]2)cc1OC", "60.6%"],
  ["c1ccc2sc(NN=C3CCCCCC3)nc2c1", "59.8%"],
  ["O=C(N/N=C/c1cccc(OC(=O)c2ccco2)c1)c1ccc(F)cc1", "57.1%"],
  ["Cc1nc2cc(-c3ccccc3)nn2c(N)c1-c1ccccc1", "59%"],
  ["Cc1ccc2cc(NC(=O)c3ccccc3)ccc2n1", "55%"],
  ["O=C1N(c2ccccc2)CCN1c1ccccc1", "67.2%"],
  ["CCC(=O)Nc1cc2nn(-c3ccc(OC)cc3)nc2cc1C", "62.5%"],
  ["Cc1nc(-c2ccc(NC(=O)c3cccs3)cc2)cs1", "83.1%"],
  ["COc1ccc(-c2nnc(NC(=O)c3ccco3)s2)cc1", "55.4%"],
  ["Cc1ccc(NC(=S)c2nc3ccccc3[nH]2)cc1", "74.3%"],
  ["O=C(Nc1ccc2c(c1)OCCO2)c1ccc(Cl)cc1Cl", "72.8%"],
  ["CC1=C(C(=O)Nc2ccccc2)C(c2ccc(C)cc2)N=C(Nc2nc3ccccc3o2)N1 (stereo unspecified)", "41%"],
  ["O=C(Nc1ccc2[nH]ccc2c1)c1cccs1", "64%"],
  ["CCCCn1c(=O)[nH]c(=O)c2c1nc(Cn1ncc(Cl)c(Cl)c1=O)n2CCC", "98.7%"],
  ["O=C(Nc1ccc(C(=O)O)cc1)/C(=C\\C=C\\c1ccccc1)NC(=O)c1ccccc1Cl", "63.6%"],
  ["COCCNc1c(-c2cc3ccc(C)c(C)c3[nH]c2=O)nc2ccccn12", "64.9%"],
  ["CCc1c(C)[nH]c2c(C)cccc2c1=O", "56.4%"],
  ["Nc1ccccc1C(=O)NN=Cc1cccnc1", "63.5%"],
  ["COc1ccc(-c2cn3ccccc3n2)cc1[N+](=O)[O-]", "50.9%"],
  ["COc1ccc(C(=O)Nc2ccc3c(c2)OCCO3)cc1", "77.6%"],
  ["CCc1ccc(C2=NNC(=Nc3cccc(S(=O)(=O)N(C)C)c3)SC2)cc1", "76.8%"],
  ["Oc1ccc(-c2cn3cc(C(F)(F)F)ccc3n2)cc1", "89.1%"],
  ["Cc1ccc(-n2nnc(-c3cccnc3Cl)n2)cc1", "56.4%"],
  ["COc1ccc(N(C(=O)CCl)C(C(=O)NC2CCCCC2)c2cccnc2)cc1 (stereo unspecified)", "99.5%"],
  ["FC(F)(F)c1cccc(CC2CN(Cc3ccccc3)Cc3ccccc3N2c2cc(Cl)cc(Cl)c2)c1 (stereo unspecified)", "1.05%"],
  ["CC(=O)Oc1ccc(/C=C/c2nc3ccccc3c(=O)o2)cc1", "80.2%"],
  ["C#Cc1ccc(NC(=O)C2(C)CCN2C(=O)CC(c2ccccc2)c2ccccc2)cc1 (stereo unspecified)", "94.4%"],
  ["Cc1ccc(C(=O)Nc2ncc3c(Cl)cccc3n2)cc1", "91.5%"],
  ["COC(=O)C12OCC34C(CC5C(C)=C(O)C(=O)CC5(C)C3C(O)C1O)OC(=O)C(OC(=O)C=C(C)C)C24 (stereo unspecified)", "91%"],
  ["COc1ccc(NC(=O)c2cc(-c3ccncc3)nc3ccc(Br)cc23)cc1OC", "4.8%"],
  ["Cc1ccc2[nH]c(-c3ccccc3)cc(=O)c2c1", "64.8%"],
  ["CN(C(=S)NC(=O)c1ccc(Cl)cc1)C1CCCCC1", "40.6%"],
  ["O=C(Nc1nc2c(s1)CCCC2)c1ccc(Br)o1", "73.7%"],
  ["CC1(C)Oc2cc3oc(-c4cc(O)cc(O)c4)cc3cc2CC1O (stereo unspecified)", "81.8%"],
  ["CCCCCN=C(N)N/N=C/c1c[nH]c2ccc(OC)cc12", "96.9%"],
  ["CN(NC(=O)c1ccc(Cl)cc1)c1nc(-c2ccccc2)nnc1C(F)(F)F", "61.9%"]
]}
